Target: IL-23R (Homo sapiens)
Experiment: cell-based
Details: PBMC pSTAT3 IC50 (nM), PBMCs from healthy donors, IL-23 5 ng/mL, 30 minutes, phosphorylated STAT3
Positions of bridges follow the written chain, without caps; N, C: chain ends. Non-standard residues stand in square brackets, D forms with d. Residues, ends and D or L forms follow the SMILES beside them. Trp(7-Me) = Cc1cccc2c(C[C@H](N)C(=O)O)c[nH]c12; 2Nal = N[C@@H](Cc1ccc2ccccc2c1)C(=O)O; AEF = NCCOc1ccc(C[C@H](N)C(=O)O)cc1; αMeC = C[C@](N)(CS)C(=O)O; Thp = NC1(C(=O)O)CCOCC1; Ac3c = NC1(C(=O)O)CC1
measuredParameter: IC50 (nM)
Use nM as the unit, but write only the number.

[ask] Identify measured IC50 associated with CC(=O)NCCCC[C@@H]1NC(=O)[C@H](Cc2c[nH]c3c(C)cccc23)NC(=O)[C@H]([C@@H](C)O)NC(=O)[C@H](CC(N)=O)NC(=O)[C@@H](NC(=O)[C@@H](CCCNC(=N)N)NC(C)=O)CSSC[C@@](C)(C(=O)N[C@@H](Cc2ccc(OCCN)cc2)C(=O)N[C@@H](Cc2ccc3ccccc3c2)C(=O)NC2(C(=O)N[C@@H](CCC(=O)O)C(=O)N[C@@H](CC(N)=O)C(=O)NC3(C(N)=O)CCOCC3)CC2)NC1=O [Compound 310] (Ac-[dR]CNT[Trp(7-Me)]K(Ac)[αMeC][AEF][2Nal][Ac3c]EN[Thp]-NH2; disulfide 2-7)
[reply] 9.9

###

Biological target: IL-23R (Homo sapiens, UniProt Q5VWK5);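 further: cryopreserved PBMCs stimulated at 37 °C in 5% CO2, then lysed, with phosphorylated STAT3 quantified in lysates using a phospho-STAT panel kit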
Sequence (Q5VWK5 24-629): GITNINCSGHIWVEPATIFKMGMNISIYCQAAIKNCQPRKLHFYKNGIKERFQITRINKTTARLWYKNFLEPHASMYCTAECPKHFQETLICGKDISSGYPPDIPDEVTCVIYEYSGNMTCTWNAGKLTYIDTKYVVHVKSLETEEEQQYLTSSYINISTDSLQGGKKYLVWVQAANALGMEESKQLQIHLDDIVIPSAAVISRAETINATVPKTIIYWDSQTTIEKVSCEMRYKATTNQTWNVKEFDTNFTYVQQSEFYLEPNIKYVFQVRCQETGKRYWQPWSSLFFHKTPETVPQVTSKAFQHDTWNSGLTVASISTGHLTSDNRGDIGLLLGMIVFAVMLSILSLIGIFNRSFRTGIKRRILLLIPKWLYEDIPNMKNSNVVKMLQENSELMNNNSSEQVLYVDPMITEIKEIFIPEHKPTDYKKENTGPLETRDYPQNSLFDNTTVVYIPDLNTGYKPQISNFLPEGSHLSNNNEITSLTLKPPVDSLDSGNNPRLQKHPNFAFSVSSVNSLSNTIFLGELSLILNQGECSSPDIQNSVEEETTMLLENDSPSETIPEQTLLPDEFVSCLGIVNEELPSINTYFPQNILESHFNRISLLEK
Experiment: cell-based
Details: PBMC pSTAT3 IC50 (nM), PBMCs from healthy donors, IL-23 5 ng/mL, 30 minutes, phosphorylated STAT3
Positions of bridges follow the written chain, without caps; N, C: chain ends. Non-standard residues stand in square brackets, D forms with d. Residues, ends and D or L forms follow the SMILES beside them. *: point of attachment. 2Nal = N[C@@H](Cc1ccc2ccccc2c1)C(=O)O; AEF = NCCOc1ccc(C[C@H](N)C(=O)O)cc1; Pen = CC(C)(S)[C@H](N)C(=O)O; Thp = NC1(C(=O)O)CCOCC1; Hexanoyl = CCCCCC(=O)*; X2 = c1c[nH]c(CN*)n1
I'd be grateful if you could share measured IC50 for these entries.
Use nM as the unit, but write only the number.

[ask] Recall the reported IC50 of `CC(=O)NCCCC[C@H](NC(=O)[C@](C)(CCCCN)NC(=O)[C@H](Cc1ccc2ccccc2c1)NC(=O)[C@H](Cc1ccc(OCCN)cc1)NC(=O)[C@H]1NC(=O)[C@H](CCCCNC(=O)C(F)(F)F)NC(=O)[C@H](Cc2c[nH]c3ccccc23)NC(=O)[C@H]([C@@H](C)O)NC(=O)[C@H](CC(N)=O)NC(=O)[C@@H](NC(C)=O)C(C)(C)SSC1(C)C)C(=O)N[C@@H](CC(N)=O)C(=O)NC1(C(N)=O)CCOCC1` on IL-23R (Homo sapiens, UniProt Q5VWK5) and write it down.
[reply] 57

[ask] Recall the reported IC50 of CC(=O)N[C@H](CCCNC(=N)N)C(=O)N[C@@H]1C(=O)N[C@@H](CCC(N)=O)C(=O)N[C@@H]([C@@H](C)O)C(=O)N[C@@H](Cc2c[nH]c3ccccc23)C(=O)N[C@@H](CCC(N)=O)C(=O)N[C@H](C(=O)N[C@@H](Cc2ccc(OCCN)cc2)C(=O)N[C@@H](Cc2ccc3ccccc3c2)C(=O)NC2(C(=O)N[C@@H](CCC(=O)O)C(=O)N[C@@H](CC(N)=O)C(=O)N[C@@H](CC(=O)NCc3ncc[nH]3)C(N)=O)CCOCC2)C(C)(C)SSC1(C)C [Compound 137] (Ac-[dR][Pen]QTWQ[Pen][AEF][2Nal][Thp]END(X2)-NH2; disulfide 2-7) on IL-23R (Homo sapiens, UniProt Q5VWK5) and write it down.
[reply] 14

[ask] Recall the reported IC50 of `CCCC(=O)NCCCC[C@H](NC(=O)C1(NC(=O)[C@H](Cc2ccc3ccccc3c2)NC(=O)[C@H](Cc2ccc(OCCN)cc2)NC(=O)[C@H]2NC(=O)[C@H](CCC(N)=O)NC(=O)[C@H](Cc3c[nH]c4ccccc34)NC(=O)[C@H]([C@@H](C)O)NC(=O)[C@H](CCC(N)=O)NC(=O)[C@@H](NC(=O)[C@@H](CCCNC(=N)N)NC(C)=O)C(C)(C)SSC2(C)C)CCOCC1)C(=O)N[C@@H](CC(N)=O)C(=O)NC1(C(N)=O)CCOCC1` on IL-23R (Homo sapiens, UniProt Q5VWK5) and write it down.
[reply] 16

[ask] Recall the reported IC50 of CCCCCC(=O)NCCCC[C@H](NC(=O)C1(NC(=O)[C@H](Cc2ccc3ccccc3c2)NC(=O)[C@H](Cc2ccc(OCCN)cc2)NC(=O)[C@H]2NC(=O)[C@H](CCC(N)=O)NC(=O)[C@H](Cc3c[nH]c4ccccc34)NC(=O)[C@H]([C@@H](C)O)NC(=O)[C@H](CCC(N)=O)NC(=O)[C@@H](NC(=O)[C@@H](CCCNC(=N)N)NC(C)=O)C(C)(C)SSC2(C)C)CCOCC1)C(=O)N[C@@H](CC(N)=O)C(=O)N[C@@H](Cc1ccccc1)C(N)=O [Compound 59] (Ac-[dR][Pen]QTWQ[Pen][AEF][2Nal][Thp]K(Hexanoyl)NF-NH2; disulfide 2-7) on IL-23R (Homo sapiens, UniProt Q5VWK5) and write it down.
[reply] 67
